// provenance: the supplement of paper PMC12282887

system: E. coli BW25113 soxSp lux reporter; experiment: promoter activity interaction Z-score (Lux/OD deviation from empty-vector control); higher = stronger promoter induction by the compound; conditions: 0.13 µg/ml; genetic background: ΔsoxS
Reported promoter activity interaction Z-score is given for each of the following compounds.

compound | promoter activity interaction Z-score
CO[C@@]12[C@H](COC(N)=O)C3=C(C(=O)C(C)=C(N)C3=O)N1C[C@@H]1N[C@@H]12 [Mitomycin C] | -0.0792
C[C@H]1c2cccc(O)c2C(=O)C2=C(O)[C@]3(O)C(=O)C(C(N)=O)=C(O)[C@@H](N(C)C)[C@@H]3[C@@H](O)[C@@H]21 [Doxycycline] | 1.87
CNC(C)C1CCC(N)C(OC2C(N)CC(N)C(OC3OCC(C)(O)C(NC)C3O)C2O)O1 (centres undefined) [Gentamicin] | 0.247
CCN1CCN(C(=O)N[C@@H](C(=O)N[C@@H]2C(=O)N3[C@@H]2SC(C)(C)[C@@H]3C(=O)O)c2ccccc2)C(=O)C1=O [Piperacillin] | -0.0509

* * *

tested on: E. coli BW25113 micFp lux reporter; test: promoter activity interaction Z-score (Lux/OD deviation from empty-vector control); higher = stronger promoter induction by the compound; details: 1 µg/ml; genetic background: ΔmarA
parameter: promoter activity interaction Z-score

compound | parameter | quantitative.readout
CCC[C@@H]1C[C@@H](C(=O)N[C@@H]([C@H]2O[C@H](SC)[C@H](O)[C@@H](O)[C@H]2O)[C@H](C)Cl)N(C)C1 | promoter activity interaction Z-score | -0.106
O=C(N[C@H](CO)[C@H](O)c1ccc([N+](=O)[O-])cc1)C(Cl)Cl | promoter activity interaction Z-score | -0.119
C/C(=C\C(=O)OCCCCCCCCC(=O)O)C[C@@H]1OC[C@H](C[C@@H]2O[C@H]2[C@@H](C)[C@H](C)O)[C@@H](O)[C@H]1O | promoter activity interaction Z-score | -0.0233
NC1CONC1=O (stereo not given) | promoter activity interaction Z-score | -0.00943
CO[C@H]1/C=C/O[C@@]2(C)Oc3c(C)c(O)c4c(O)c(c(/C=N/N5CCN(C)CC5)c(O)c4c3C2=O)NC(=O)/C(C)=C\C=C\[C@H](C)[C@H](O)[C@@H](C)[C@@H](O)[C@@H](C)[C@H](OC(C)=O)[C@@H]1C | promoter activity interaction Z-score | -0.444

* * *

Reported promoter activity interaction Z-score is given for each of the following compounds.
system: E. coli BW25113 marRABp lux reporter; test: promoter activity interaction Z-score (Lux/OD deviation from empty-vector control); higher = stronger promoter induction by the compound; details: 1 µg/ml; genetic background: ΔsoxS
parameter: promoter activity interaction Z-score

compound | result
O=C(N[C@H](CO)[C@H](O)c1ccc([N+](=O)[O-])cc1)C(Cl)Cl | 1.31
NC1CONC1=O (centres undefined) | -0.158
C/C(=C\C(=O)OCCCCCCCCC(=O)O)C[C@@H]1OC[C@H](C[C@@H]2O[C@H]2[C@@H](C)[C@H](C)O)[C@@H](O)[C@H]1O | -0.0673
CO[C@H]1/C=C/O[C@@]2(C)Oc3c(C)c(O)c4c(O)c(c(/C=N/N5CCN(C)CC5)c(O)c4c3C2=O)NC(=O)/C(C)=C\C=C\[C@H](C)[C@H](O)[C@@H](C)[C@@H](O)[C@@H](C)[C@H](OC(C)=O)[C@@H]1C | -0.415

* * *

test system: E. coli BW25113 ompFp lux reporter; assay: promoter activity interaction Z-score (Lux/OD deviation from empty-vector control); higher = stronger promoter induction by the compound; details: 3.7 µg/ml; genetic background: ΔsoxS

mol.smiles | promoter activity interaction Z-score
CC1(C)S[C@@H]2[C@H](NC(=O)Cc3ccccc3)C(=O)N2[C@H]1C(=O)O | 1.7
CC[C@H]1OC(=O)[C@H](C)[C@@H](O[C@H]2C[C@@](C)(OC)[C@@H](O)[C@H](C)O2)[C@H](C)[C@@H](O[C@@H]2O[C@H](C)C[C@H](N(C)C)[C@H]2O)[C@](C)(OC)C[C@@H](C)C(=O)[C@H](C)[C@@H](O)[C@]1(C)O | 4.01
CCCCCCCCCCCCC[N+](C)(C)Cc1ccccc1 | -0.498
CC[C@H]1OC(=O)[C@H](C)[C@@H](O[C@H]2C[C@@](C)(OC)[C@@H](O)[C@H](C)O2)[C@H](C)[C@@H](O[C@@H]2O[C@H](C)C[C@H](N(C)C)[C@H]2O)[C@](C)(O)C[C@@H](C)C(=O)[C@H](C)[C@@H](O)[C@]1(C)O | 2.48

* * *

tested on: E. coli BW25113 marRABp lux reporter; assay: promoter activity interaction Z-score (Lux/OD deviation from empty-vector control); higher = stronger promoter induction by the compound; details: 0.011 µg/ml; genetic background: wild type
Reported promoter activity interaction Z-score is given for each of the following compounds.
parameter: promoter activity interaction Z-score

compound | quantitative.readout
COc1c(N2C[C@@H]3CCCN[C@@H]3C2)c(F)cc2c(=O)c(C(=O)O)cn(C3CC3)c12 [Moxifloxacin] | 0.044
C[C@@H](O)[C@H]1C(=O)N2C(C(=O)O)=C(S[C@@H]3CN[C@H](C(=O)N(C)C)C3)[C@H](C)[C@H]12 [Meropenem] | -0.451
C[C@H]1[C@H](NC(=O)/C(=N\OC(C)(C)C(=O)O)c2csc(N)n2)C(=O)N1S(=O)(=O)O [Aztreonam] | 0.0506
C[C@@H]1O[C@@H]1P(=O)(O)O [Fosfomycin] | 0.112

* * *

tested on: E. coli BW25113 marRABp lux reporter; test: promoter activity interaction Z-score (Lux/OD deviation from empty-vector control); higher = stronger promoter induction by the compound; details: 0.011 µg/ml; genetic background: Δrob
Reported promoter activity interaction Z-score is given for each of the following compounds.

mol.smiles | promoter activity interaction Z-score
C[C@@H]1O[C@@H]1P(=O)(O)O | -0.0327
COc1c(N2C[C@@H]3CCCN[C@@H]3C2)c(F)cc2c(=O)c(C(=O)O)cn(C3CC3)c12 | -0.0981
C[C@@H](O)[C@H]1C(=O)N2C(C(=O)O)=C(S[C@@H]3CN[C@H](C(=O)N(C)C)C3)[C@H](C)[C@H]12 | -0.399
C[C@H]1[C@H](NC(=O)/C(=N\OC(C)(C)C(=O)O)c2csc(N)n2)C(=O)N1S(=O)(=O)O | -0.0608

* * *

Reported promoter activity interaction Z-score is given for each of the following compounds.
test system: E. coli BW25113 soxSp lux reporter; assay: promoter activity interaction Z-score (Lux/OD deviation from empty-vector control); higher = stronger promoter induction by the compound; conditions: 1 µg/ml; genetic background: wild type

compound | promoter activity interaction Z-score
NC1CONC1=O (centres undefined) | 0.217
CCC[C@@H]1C[C@@H](C(=O)N[C@@H]([C@H]2O[C@H](SC)[C@H](O)[C@@H](O)[C@H]2O)[C@H](C)Cl)N(C)C1 | 0.0391
C/C(=C\C(=O)OCCCCCCCCC(=O)O)C[C@@H]1OC[C@H](C[C@@H]2O[C@H]2[C@@H](C)[C@H](C)O)[C@@H](O)[C@H]1O | -0.14
CC1(C)S[C@@H]2[C@H](NC(=O)[C@H](N)c3ccc(O)cc3)C(=O)N2[C@H]1C(=O)O | 0.0777

* * *

Reported promoter activity interaction Z-score is given for each of the following compounds.
system: E. coli BW25113 soxSp lux reporter; assay: promoter activity interaction Z-score (Lux/OD deviation from empty-vector control); higher = stronger promoter induction by the compound; details: 1 µg/ml; genetic background: ΔmarA
parameter: promoter activity interaction Z-score

mol.smiles | quantitative.readout
O=C(N[C@H](CO)[C@H](O)c1ccc([N+](=O)[O-])cc1)C(Cl)Cl | 2.38
CC1(C)S[C@@H]2[C@H](NC(=O)[C@H](N)c3ccc(O)cc3)C(=O)N2[C@H]1C(=O)O | -0.259
CO[C@H]1/C=C/O[C@@]2(C)Oc3c(C)c(O)c4c(O)c(c(/C=N/N5CCN(C)CC5)c(O)c4c3C2=O)NC(=O)/C(C)=C\C=C\[C@H](C)[C@H](O)[C@@H](C)[C@@H](O)[C@@H](C)[C@H](OC(C)=O)[C@@H]1C | -0.341
C/C(=C\C(=O)OCCCCCCCCC(=O)O)C[C@@H]1OC[C@H](C[C@@H]2O[C@H]2[C@@H](C)[C@H](C)O)[C@@H](O)[C@H]1O | -0.143
CCC[C@@H]1C[C@@H](C(=O)N[C@@H]([C@H]2O[C@H](SC)[C@H](O)[C@@H](O)[C@H]2O)[C@H](C)Cl)N(C)C1 | 0.244

* * *

Reported promoter activity interaction Z-score is given for each of the following compounds.
system: E. coli BW25113 acrABp lux reporter; test: promoter activity interaction Z-score (Lux/OD deviation from empty-vector control); higher = stronger promoter induction by the compound; details: 0.13 µg/ml; genetic background: ΔsoxS

compound | promoter activity interaction Z-score
N=C(NCCCCCCNC(=N)NC(=N)Nc1ccc(Cl)cc1)NC(=N)Nc1ccc(Cl)cc1 | 0.339
CNC(C)C1CCC(N)C(OC2C(N)CC(N)C(OC3OCC(C)(O)C(NC)C3O)C2O)O1 (centres undefined) | 0.158
CCN1CCN(C(=O)N[C@@H](C(=O)N[C@@H]2C(=O)N3[C@@H]2SC(C)(C)[C@@H]3C(=O)O)c2ccccc2)C(=O)C1=O | -0.295
C[C@H]1c2cccc(O)c2C(=O)C2=C(O)[C@]3(O)C(=O)C(C(N)=O)=C(O)[C@@H](N(C)C)[C@@H]3[C@@H](O)[C@@H]21 | 2.67
